Entries and their measured PBM binding z-score follow.
Test system: VDR homodimer (NR concentration 270 nM)
Experiment: PBM binding z-score (relative to random genomic background probes); higher = stronger binding; sequences stand for … in GC…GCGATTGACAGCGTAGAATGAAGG
Returns: the value as a bare number; no unit string appended.

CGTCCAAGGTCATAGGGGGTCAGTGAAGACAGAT
4.75

For `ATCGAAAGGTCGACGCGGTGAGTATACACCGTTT` the sequence record lists PBM binding z-score as 0.391

----------
System: PXR homodimer (NR concentration 270 nM)
Assay: PBM binding z-score (relative to random genomic background probes); higher = stronger binding; sequences stand for … in GC…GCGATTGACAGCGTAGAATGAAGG
// classify(record): look up PBM binding z-score in ranges lower band = under 0.2, central band = from 0.2 up to 2, upper band = 2 and over

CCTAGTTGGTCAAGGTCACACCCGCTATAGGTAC
upper band
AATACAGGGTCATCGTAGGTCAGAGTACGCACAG
central band
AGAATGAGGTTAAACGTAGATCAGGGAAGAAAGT
central band

Asked: Where would `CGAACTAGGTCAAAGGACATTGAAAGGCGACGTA` land among the classes by reported PBM binding z-score?
Given back: lower band
